- Target of assay: Solute carrier family 2, facilitated glucose transporter member 1 (Homo sapiens) (UniProt P11166)
- Sequence (P11166 whole entry): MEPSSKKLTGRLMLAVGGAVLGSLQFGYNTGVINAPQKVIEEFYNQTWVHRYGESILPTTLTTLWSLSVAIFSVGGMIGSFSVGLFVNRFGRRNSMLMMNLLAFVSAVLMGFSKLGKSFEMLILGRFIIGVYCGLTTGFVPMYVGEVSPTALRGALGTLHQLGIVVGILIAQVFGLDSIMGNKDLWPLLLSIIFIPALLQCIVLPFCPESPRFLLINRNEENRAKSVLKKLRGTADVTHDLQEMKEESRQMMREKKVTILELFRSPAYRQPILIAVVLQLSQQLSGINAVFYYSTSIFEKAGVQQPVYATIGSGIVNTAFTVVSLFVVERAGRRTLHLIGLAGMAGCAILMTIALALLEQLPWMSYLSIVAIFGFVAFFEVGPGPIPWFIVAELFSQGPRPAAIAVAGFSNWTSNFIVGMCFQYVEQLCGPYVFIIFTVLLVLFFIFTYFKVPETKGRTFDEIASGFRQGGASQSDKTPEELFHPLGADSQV
- Assay explanation: ST_JUDE_LEISH: Cytotoxicity at 2uM final concentration against transgenic Leishmania Mexicana promastigotes LmGLUT1 that are glucose transport deficient and complemented with the human glucose transporter GLUT1. Activity is measured by DNA content using SYBR green in vitro
- Assay type: functional

{"columns": ["Compound", "inhibition / %"],
 "data": [
  ["COc1ccc2nccc([C@@H](O)CN3CCC(NC(=O)C(=Cc4ccc(Cl)cc4Cl)c4ccc(-c5ccccc5)cc4)CC3)c2c1", 6.27],
  ["Cc1cccc2nc(-c3ccc(-c4ccc(CNCCCN5CCCC5=O)cc4)cc3)[nH]c12", 7.88],
  ["OC(COc1ccccc1-c1nc2ccccc2o1)CN1CCCN(CCc2ccccc2)CC1 (centres undefined)", -0.28],
  ["O=C(Nc1ccccc1)Nc1cccc(-c2ccc(-c3nc4cc(C(F)(F)F)ccc4[nH]3)cc2)c1", 4.43]
]}

* * *

- Target of assay: Hexose transporter 1 (Plasmodium falciparum) (UniProt O97467)
- Assay explanation: ST_JUDE_LEISH: Cytotoxicity at 2uM final concentration against transgenic Leishmania Mexicana promastigotes LmPfHT that are glucose transport deficient and complemented with the Plasmodium falciparum hexose transporter. Activity is measured by DNA content using SYBR green in vitro
- Type: functional
Examples of compounds with documented inhibition follow.

{"columns": ["Compound", "inhibition"],
 "data": [
  ["COc1cc(SC)c(Br)cc1-c1nc2ccncc2[nH]1", "2.12%"],
  ["O=C(Nc1ccccc1)c1cccc(Nc2nccc(Nc3ccc(Oc4ccccc4)cc3)n2)c1", "1.07%"],
  ["CCCC(C)Nc1nc(C)cc(N[C@@H](CC(C)C)C(=O)NCCc2ccccc2)n1 (some centres undefined)", "6.41%"],
  ["COc1ccc(Cn2c(Nc3cccc(C(F)(F)F)c3)nc3cc(C(=O)NCCCN(C)C)ccc32)cc1Cl", "0.55%"],
  ["N#Cc1ccc(N[C@@H](CC2CCCCC2)C(=O)N[C@@H]2CCCc3ccccc32)c2ccccc12", "1.88%"],
  ["CCN(CC)CCN(Cc1ccc(-c2ccc(C(F)(F)F)cc2)cc1)C(=O)Cn1c(CCC2CCCCC2)nc(=O)c2ccccc21", "1.35%"],
  ["O=C(C=Cc1ccc(F)cc1)NC1CCC(CCN2CCc3ccc(-c4cnccn4)cc3CC2)CC1 (centres undefined)", "-0.24%"],
  ["O=[N+]([O-])c1ccc(-n2nc(Cc3ccccc3)n(Cc3cccc(F)c3)c2=S)c(C(F)(F)F)c1", "3.14%"],
  ["CCC(C)NS(=O)(=O)c1ccc2nc(Nc3ccc(C)c(Cl)c3)n(C3CCCCC3)c2c1 (centres undefined)", "5.72%"]
]}

* * *

- Target of assay: Solute carrier family 2, facilitated glucose transporter member 1 (Homo sapiens) (UniProt P11166)
- Assay explanation: ST_JUDE_LEISH: Cytotoxicity at 2uM final concentration against transgenic Leishmania Mexicana promastigotes LmGLUT1 that are glucose transport deficient and complemented with the human glucose transporter GLUT1. Activity is measured by DNA content using SYBR green in vitro
- Format: functional
Reported endpoint: inhibition (%)

{"columns": ["Compound", "Unit symbol", "Data value"],
 "data": [
  ["CNCCNCc1cccc(-c2ccc(-c3nc4cccc(C)c4[nH]3)s2)c1", "%", -0.6],
  ["CC(C)NCc1ccc(-c2cccc(CN3CCC(c4ccccc4)CC3)c2)c(C(=O)NCC2CCCCC2)c1", "%", 7.97],
  ["CCN1CCN(c2cc(C)c3cc(NC(=O)c4ccc(C(C)(C)C)cc4)ccc3n2)CC1", "%", -0.6],
  ["Cc1cc(C(=O)Nc2ccc3c(c2)CCN3C2CCN(Cc3ccc4nsnc4c3)C2)no1 (stereo not given)", "%", 3.24],
  ["O=C(Nc1cccc(CN2CCCN(Cc3ccsc3)CC2)c1)c1ccc(Cl)c(Cl)c1", "%", 4.04],
  ["CC1(CCN2CCC(c3c[nH]c4cnccc34)CC2)CCCc2c(Br)cccc2C1=O (stereo not given)", "%", 54.7],
  ["Fc1cccc(Nc2nc(NCc3ccc4ccsc4c3)nc(Nc3cccc(F)c3)n2)c1", "%", 19.2],
  ["c1csc(-c2nc(N3CCCCC3)ncc2-c2ccsc2)n1", "%", 4.57],
  ["N=C(N)Nc1ccc(OCCCCCOc2ccc(NC(=N)N)c(Cl)c2)cc1Cl", "%", -0.79],
  ["O=C(Nc1ccccc1)N(Cc1ccc(-c2cccc(CNC3CCCC3)c2)cc1)C1CCN(Cc2ccccc2)CC1", "%", 0.97]
]}

The origin of these recorded values is ChEMBL document CHEMBL3433997.
